Cited source: patent EP1420018A1

Catalogue of ED50 values
# System: metrazol-induced convulsions
# ASSAY COMMENT: Suppression of Metrazol-Induced Convulsions in Adult Male Mice
# Format: in vivo
# EXPERIMENTAL PARAMETERS: Mus musculus, ip, block of clonic convulsions, male CD1 mice, >30 = active dose not determined

Solved cases (5 shown):
MOL SMILES | OBS VALUE
O=C1CCN2C(=C1C(=O)Nc1ccccc1F)N(CCNC(=O)c1ccc(C(F)(F)F)cc1)c1cc(F)ccc12 | ≥ 30 mg/kg
N#CCCNC(=O)CN1C2=C(C(=O)Nc3ccccc3F)C(=O)CCN2c2ccc(F)cc21 | > 1 mg/kg
CN(C)CCN1C2=C(C(=O)Nc3ccccc3F)C(=O)CCN2c2cccc(F)c21 | 1 mg/kg
COc1cccc(NC(=O)C2=C3N(CC#N)c4ccccc4N3CCC2=O)c1 | < 1 mg/kg
O=C1CCN2C(=C1C(=O)Nc1ccccc1F)N(CCNS(=O)(=O)c1ccc(C(F)(F)F)cc1)c1cc(F)ccc12 | > 1 mg/kg

Reported ED50 of `CN(CCN1C2=C(C(=O)Nc3ccccc3F)C(=O)CCN2c2ccc(F)cc21)S(=O)(=O)C(F)(F)F` : > 1 mg/kg

Reported ED50 of `COCCN(C)CCN1C2=C(C(=O)Nc3ccccc3F)C(=O)CCN2c2ccc(F)cc21` : < 1 mg/kg

Reported ED50 of `N#CCN1C2=C(C(=O)Nc3ccccc3F)C(=O)CCN2c2ccc(F)cc21` : < 1 mg/kg

---

Catalogue of IC50 values
# TARGET OR SYSTEM: benzodiazepine site of the GABA-A receptor
# ASSAY COMMENT: Benzodiazepine Receptor Binding Assay (inhibition of 3H-flunitrazepam binding)
# EXPERIMENTAL PARAMETERS: read-out: GABAA Receptor Binding IC50
Reply with just the number (in nM).

Solved cases (5 shown):
MOL SMILES | OBS VALUE
CNCCN1C2=C(C(=O)Nc3ccccc3F)C(=O)CCN2c2ccc(F)cc21 | 16
CN(C)CCCN1C2=C(C(=O)Nc3ccccc3F)C(=O)CCN2c2ccc(F)cc21 | 3.29
CCOC(CCN1C2=C(C(=O)Nc3ccccc3F)C(=O)CCN2c2ccc(F)cc21)OCC | 6.98
CN(C)c1ccc(CCN2C3=C(C(=O)Nc4c(F)cccc4F)C(=O)CCN3c3ccc(F)cc32)cc1 | 36.2
COCCN(CCN1C2=C(C(=O)Nc3ccccc3F)C(=O)CCN2c2ccc(F)cc21)Cc1ccccc1 | 7.99

Reported IC50 of `CCN(CC)CCN1C2=C(C(=O)Nc3c(F)cccc3F)C(=O)CCN2c2ccc(F)cc21` : 267

Reported IC50 of `CCOCCN1C2=C(C(=O)Nc3ccc(C)s3)C(=O)CCN2c2ccc(F)cc21` : 1.03

Reported IC50 of `CCOCN1C2=C(C(=O)Nc3ccc(S(C)(=O)=O)s3)C(=O)CCN2c2ccc(F)cc21` : 35.1

---

Catalogue of IC50 values
# TARGET OR SYSTEM: benzodiazepine site of the GABA-A receptor
# ASSAY COMMENT: Benzodiazepine Receptor Binding Assay (inhibition of 3H-flunitrazepam binding)
# EXPERIMENTAL PARAMETERS: read-out: GABAA Receptor Binding IC50; inhibition of 3H-flunitrazepam (ca. 3 nM) binding to membranes, 25°C; over 10,000 = not active
Reply with just the number (in nM).

COMPOUND | IC50 (nM)
COc1cccc2c1N(CCN(C)C)C1=C(C(=O)Nc3nccs3)C(=O)CCN12 [Compound 34] | 1000
O=C1CCN2C(=C1C(=O)Nc1ccccc1F)N(CCN1CCOCC1)c1cc(F)ccc12 [Compound 88] | 3.67

Reported IC50 of N#CCN1C2=C(C(=O)Nc3ccccc3F)C(=O)CCN2c2ccc(F)cc21 [Compound 89] : 1.84

Reported IC50 of O=C1CCN2C(=C1C(=O)Nc1ccccc1F)N(CCNS(=O)(=O)c1ccccc1)c1cc(F)ccc12 [Compound 44] : 10.1

---

# Tested on: Anxiety in the Adult Male Rat
# ASSAY COMMENT: Suppression of Anxiety in the Adult Male Rat (rat conflict test)
# Format: in vivo, rats
# EXPERIMENTAL PARAMETERS: Rattus norvegicus, po, rat, po; read-out: Rat Conflict (MED, mg/kg) po
OBSERVABLE: minimal effective dose

Solved cases (5 shown):
MOLECULE | OBS VALUE
CN(C)CCN1C2=C(C(=O)Nc3cccs3)C(=O)CCN2c2ccc(F)cc21 | ~10 mg/kg
CCOCCN1C2=C(C(=O)Nc3ccc(F)cc3F)C(=O)CCN2c2ccc(F)cc21 | 1 mg/kg
COCCN1C2=C(C(=O)Nc3ccc(OC)cc3)C(=O)CCN2c2ccc(F)cc21 | 1 mg/kg
O=C(O)CN1C2=C(C(=O)Nc3ccccc3F)C(=O)CCN2c2ccc(F)cc21 | > 10 mg/kg
CCOCN1C2=C(C(=O)Nc3ccc(S(C)(=O)=O)s3)C(=O)CCN2c2ccc(F)cc21 | > 10 mg/kg

Okay, next one:
The reported minimal effective dose value, Anxiety in the Adult Male Rat, for `CCOCN1C2=C(C(=O)Nc3ccccc3F)C(=O)CCN2c2ccc(Cl)cc21` reads > 10 mg/kg

---

# TARGET OR SYSTEM: benzodiazepine site of the GABA-A receptor
# ASSAY COMMENT: Benzodiazepine Receptor Binding Assay (inhibition of 3H-flunitrazepam binding)
# EXPERIMENTAL PARAMETERS: read-out: GABAA Receptor Binding IC50; inhibition of 3H-flunitrazepam (ca. 3 nM) binding to membranes, 25°C; over 10,000 = not active
Catalogue of IC50 values
Reply with just the number (in nM).

Solved cases (5 shown):
MOL SMILES | IC50, nM
COc1cccc(NC(=O)C2=C3N(CC#N)c4ccccc4N3CCC2=O)c1 | 6.04
CN(C)CCN1C2=C(C(=O)Nc3ccccc3F)C(=O)CCN2c2ccc(Cl)cc21 | 26.9
CCN(C)CCN1C2=C(C(=O)Nc3ccccc3F)C(=O)CCN2c2ccc(F)cc21 | 9.8
O=C(CN1C2=C(C(=O)Nc3ccccc3F)C(=O)CCN2c2ccc(F)cc21)NCCc1c[nH]cn1 | 3.56
CN=C(NCCN1C2=C(C(=O)Nc3ccccc3F)C(=O)CCN2c2ccc(F)cc21)N1CCCC1 | 54

Reported IC50 of `CN(C)C=NCCN1C2=C(C(=O)Nc3ccccc3F)C(=O)CCN2c2ccc(F)cc21` : 35

Reported IC50 of `Cc1ccc(NC(=O)C2=C3N(CCNS(=O)(=O)C(F)(F)F)c4cc(F)ccc4N3CCC2=O)s1` : 46.9

Reported IC50 of `O=C1CCN2C(=C1C(=O)Nc1ccccc1F)N(CCNS(=O)(=O)c1ccc(C(F)(F)F)cc1)c1cc(F)ccc12` : 122

Reported IC50 of `COCCN(C)CCN1C2=C(C(=O)Nc3ccccc3F)C(=O)CCN2c2ccc(F)cc21` : 4.06

Reported IC50 of `CN(C)CCN1C2=C(C(=O)Nc3ccccc3F)C(=O)CCN2c2cccc(F)c21` : 40.6

---

# Test system: metrazol-induced convulsions
# ASSAY COMMENT: Suppression of Metrazol-Induced Convulsions in Adult Male Mice
# Type: in vivo
# EXPERIMENTAL PARAMETERS: Mus musculus, ip, block of clonic convulsions, male CD1 mice, >30 = active dose not determined
Catalogue of ED50 values
Reply with just the number (in mg/kg).

Solved cases (2 shown):
MOLECULE | ED50 [mg/kg]
O=C1CCN2C(=C1C(=O)Nc1ccccc1F)N(CCN1CCOCC1)c1cc(F)ccc12 [Compound 88] | 0.1
CCN(C)CCN1C2=C(C(=O)Nc3ccccc3F)C(=O)CCN2c2ccc(F)cc21 [Compound 41] | 3

Okay, next one:
Reported ED50 of CN1CCCC(N2C3=C(C(=O)Nc4ccccc4F)C(=O)CCN3c3ccc(F)cc32)C1 (stereo not shown) [Compound 87] : 3

---

# TARGET OR SYSTEM: benzodiazepine site of the GABA-A receptor
# ASSAY COMMENT: Benzodiazepine Receptor Binding Assay (inhibition of 3H-flunitrazepam binding)
# EXPERIMENTAL PARAMETERS: read-out: GABAA Receptor Binding IC50
Catalogue of pIC50 values
Please keep in mind that pIC50 is minus log10 of the molar concentration; only the number is needed.

Solved cases (5 shown):
COMPOUND | OBS VALUE
COCCN1C2=C(C(=O)Nc3c(F)cccc3F)C(=O)CCN2c2ccccc21 [Compound 151] | 8.33
CCOCN1C2=C(C(=O)Nc3ccc(F)cc3F)C(=O)CCN2c2ccc(F)cc21 [Compound 123] | 8.92
CCOCCN1C2=C(C(=O)Nc3nccs3)C(=O)CCN2c2ccc(F)cc21 [Compound 141] | 8.17
CCOCN1C2=C(C(=O)Nc3ccc(OCCOC)cc3F)C(=O)CCN2c2ccc(F)cc21 [Compound 93] | 8.74
CCOCN1C2=C(C(=O)Nc3cc4ccccc4s3)C(=O)CCN2c2ccccc21 [Compound 116] | 7.00

The reported pIC50 value, benzodiazepine site of the GABA-A receptor, for COCCN1C2=C(C(=O)NC3CCCCC3)C(=O)CCN2c2ccc(F)cc21 [Compound 110] reads 7.72

The reported pIC50 value, benzodiazepine site of the GABA-A receptor, for CC1(CN2C3=C(C(=O)Nc4ccccc4F)C(=O)CCN3c3ccc(F)cc32)COC1 [Compound 180] reads 7.74

The reported pIC50 value, benzodiazepine site of the GABA-A receptor, for CCOCN1C2=C(C(=O)Nc3ccc(F)cc3F)C(=O)CCN2c2cc(F)cc(F)c21 [Compound 113] reads 7.35

The reported pIC50 value, benzodiazepine site of the GABA-A receptor, for CCOCN1C2=C(C(=O)Nc3ccsc3)C(=O)CCN2c2ccc(F)cc21 [Compound 124] reads 9.01

The reported pIC50 value, benzodiazepine site of the GABA-A receptor, for CC(=O)NCCN1C2=C(C(=O)Nc3ccccc3F)C(=O)CCN2c2ccc(F)cc21 [Compound 53] reads 8.26
